biological target: G-protein coupled receptor 55 (Homo sapiens) (UniProt Q9Y2T6); experiment: blockade of LPI-induced GPR55 arrestin translocation – imaging, U2OS, beta-arrestin-GFP, LPI agonist, set 2, SAR follow-up (AID 2820); details: LPI antagonism
Sequence (Q9Y2T6 whole entry, looked up): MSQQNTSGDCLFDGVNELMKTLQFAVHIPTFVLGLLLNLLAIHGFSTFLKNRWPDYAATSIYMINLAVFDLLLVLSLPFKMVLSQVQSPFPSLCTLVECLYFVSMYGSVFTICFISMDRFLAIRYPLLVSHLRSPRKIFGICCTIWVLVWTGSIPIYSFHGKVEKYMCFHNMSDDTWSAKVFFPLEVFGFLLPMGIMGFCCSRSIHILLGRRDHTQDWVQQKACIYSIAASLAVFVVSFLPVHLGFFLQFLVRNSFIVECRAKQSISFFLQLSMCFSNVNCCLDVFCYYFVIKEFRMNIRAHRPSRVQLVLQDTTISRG
IC50 for assorted molecules

Cc1nc(N2CCN(C(=O)c3ccco3)CC2)c2c3c(sc2n1)CCCC3 : 702 nM
Cc1ccc(C2(C(=O)N3CCC(n4nc(-c5ccccc5)oc4=O)CC3)CC2)cc1 : 1080 nM
Cc1cc(OCC(=O)Nc2ccc(S(=O)(=O)NC3=NCCCCC3)cc2)c(C(C)C)cc1Cl : 1090 nM

Now, please, on to the next molecule.
State IC50 (G-protein coupled receptor 55 (Homo sapiens) (UniProt Q9Y2T6)) of `O=C(c1ccco1)N1CCN(c2nc(C3CC3)nc3sc4c(c23)CCCC4)CC1` .
865 nM
